Reported OD 450 nm (reference 630 nm) values for a set of binders
molecular target: T1, CTNI quality control recombinant protein (PK2-CTNI-1, 170120, produced by the applicant) (human, UniProt P19429 2-210, limits assumed); assay: indirect ELISA, cTnI coated 1 ug/ml, antibody 200 ug/ml
T1 construct: also called cardiac troponin I
T1 sequence (P19429 2-210 limits assumed): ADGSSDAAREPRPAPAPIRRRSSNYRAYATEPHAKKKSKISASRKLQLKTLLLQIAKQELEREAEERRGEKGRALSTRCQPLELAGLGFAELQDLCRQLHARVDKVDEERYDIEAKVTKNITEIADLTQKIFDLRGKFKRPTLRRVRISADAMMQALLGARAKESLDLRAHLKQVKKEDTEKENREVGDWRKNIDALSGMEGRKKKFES
PROPERTY_MEASURED: OD 450 nm (reference 630 nm) (OD)

>>> experimental_value("Mutation 1 (antibody, V domains shown, No residue numbers are printed, so each chain is built as FR1-CDR1-FR2-CDR2-FR3-CDR3-FR4-constant) VH: EVQLQQSGAELVKPGASVKLSCTASGFNLKDYFMHWMKQRTEQGLDWIGRIDPEDAETRYAPEFQGKATITADTSSNTAYLQLSTLTSEDTAVYYCARYYSSYIPFVYWGQGTLVTASA VL: DVVMTQTPLSLSVSLGDQASISCRSSQSIIYSNRHTYLHWYLQKPGQSPKLLIFQISNRFSGVPDRFSGSGSGTDFTLKINRVEAEDLGVYFCSQSTHLPFTFGSGTKLEIKR")
2.4
>>> experimental_value("Mutation 4 (antibody, V domains shown, built as for Mutation 1) VH: EVQLQQSGAELVKPGASVKLSCTASGFNLKDYFMHWMKQRTEQGLDWIGRIEPEDAETRYAPEFQGKATITADTSSNTAYLQLSTLTSEDTAVYYCARYYSSYIPFVYWGQGTLVTASA VL: DVVMTQTPLSLSVSLGDQASISCRSSQSIIYSNKHTYLHWYLQKPGQSPKLLIFQISNRFSGVPDRFSGSGSGTDFTLKINRVEAEDLGVYFCSNSTHLPFTFGSGTKLEIKR")
2.15
>>> experimental_value("Mutation 3 (antibody, V domains shown, built as for Mutation 1) VH: EVQLQQSGAELVKPGASVKLSCTASGFNLKEYFMHWMKQRTEQGLDWIGRIDPEDAETRYAPEFQGKATITADTSSNTAYLQLSTLTSEDTAVYYCARYYTSYIPFVYWGQGTLVTASA VL: DVVMTQTPLSLSVSLGDQASISCRSSQSIIYSNRHTYLHWYLQKPGQSPKLLIFQISQRFSGVPDRFSGSGSGTDFTLKINRVEAEDLGVYFCSQSTHLPFTFGSGTKLEIKR")
2.37
>>> experimental_value("Mutation 2 (antibody, V domains shown, built as for Mutation 1) VH: EVQLQQSGAELVKPGASVKLSCTASGFNLKEYFMHWMKQRTEQGLDWIGRIDPEDAETRYAPEFQGKATITADTSSNTAYLQLSTLTSEDTAVYYCARYYTSYIPFVYWGQGTLVTASA VL: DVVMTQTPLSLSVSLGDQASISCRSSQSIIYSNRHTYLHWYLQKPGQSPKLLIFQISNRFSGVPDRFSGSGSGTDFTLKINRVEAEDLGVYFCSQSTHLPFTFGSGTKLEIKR")
2.42
>>> experimental_value("Mutation 5 (antibody, V domains shown, built as for Mutation 1) VH: EVQLQQSGAELVKPGASVKLSCTASGFNLKDYFMHWMKQRTEQGLDWIGRIEPEDAETRYAPEFQGKATITADTSSNTAYLQLSTLTSEDTAVYYCARYYSSYIPFVYWGQGTLVTASA VL: DVVMTQTPLSLSVSLGDQASISCRSSQSIIYSNKHTYLHWYLQKPGQSPKLLIFQISQRFSGVPDRFSGSGSGTDFTLKINRVEAEDLGVYFCSNSTHLPFTFGSGTKLEIKR")
2.2
